Target: POS-1 (Caenorhabditis elegans) binding to mex-3 RNA
Test: C. elegans POS-1 RNA interaction disruptors – biochemical, fluorescence polarization, cherry-picked samples, set 2, counter-screen for MEX-5 RNA-binding inhibitor project, dose response (AID 493130);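 note: POS-1 as maltose binding protein fusion made in E. coli with FITC RNA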
Settings: POS-1/mex-3 RNA fluorescence polarization, 1 h; at 10 µM (top of the series)
Inconclusive results are not listed. Active and inactive are the calls of the source.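 Rule for the calls: active = signal-lowering compounds whose fitted half-maximal concentration is at most ten times their highest tested dose; inconclusive = flat fit between -30 and -70%, or poor fit; inactive = flat within 30%, signal rising, or potency beyond limit.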
PROPERTY LABEL: activity change, negative = inhibition

# COMPOUND, OBSERVED
rows = [
    ("O=S(=O)(O)c1nc2ccccc2n1Cc1ccc(Cl)cc1Cl", "inactive"),
    ("Cc1cc(C)cc(NC(=O)N(C)Cc2ccccc2)c1", "inactive"),
    ("COC/C=C/C1=CC2=CC(=O)C(C)(O)C(=O)C2=CO1 (centres undefined)", "inactive"),
    ("COc1cc2c(cc1N/C=C(\\C#N)c1nc(-c3ccc(F)cc3)cs1)oc1ccccc12", "inactive"),
    ("COc1cccc2cc(-c3nc(-c4cccs4)cs3)c(=O)oc12", "inactive"),
    ("Nc1ccc(Oc2ncccn2)cc1", "inactive"),
    ("O=c1oc2cc([N+](=O)[O-])ccc2nc1/C=C(\\O)c1cccc(Br)c1", "inactive"),
    ("CC(C)=CCc1c(O)cc(O)c2c(=O)c(O[C@@H]3O[C@@H](C)[C@H](O)[C@@H](O)[C@H]3O)c(-c3ccc(O)cc3)oc12", "inactive"),
]

# get_value(readout='activity change, negative = inhibition', item= "O=C(Cc1csc(N2CCOCC2)n1)N/N=C/c1ccc(O)c(O)c1O" )
inactive

# input compound: "O=C1c2cccc3c(Cl)ccc(c23)C(=O)N1O" ; wanted: its activity change, negative = inhibition
inactive

# get_value(readout='activity change, negative = inhibition', item= "O=c1c2ccccc2nc(/C=C/c2ccc([N+](=O)[O-])cc2)n1CCCO" )
inactive

# input compound: "Cc1cc(=O)oc(C)c1C(=O)Nc1c(C)n(C)n(-c2ccccc2)c1=O" ; wanted: its activity change, negative = inhibition
inactive

Look up activity change, negative = inhibition for this compound: "O=c1cc[nH]c2c1ccc1c(=O)cc[nH]c12"
inactive

Return reported activity change, negative = inhibition; argument: "O=C1NC(=O)N(Cc2ccccc2)C(=O)/C1=C\c1ccco1"
inactive

Give its activity change, negative = inhibition value. Item: "Cc1ccc(NC(=O)CCC(=O)NNC(=S)Nc2ccccc2)c(C)c1"
inactive

Would you kindly share the measured activity change, negative = inhibition for "O=C(O)CCC(=O)NNc1ncnc2ccccc12" ?
inactive

Item "N=C1C(c2nc3ccccc3[nH]2)=C(O)CN1c1ccc(F)cc1" has what recorded activity change, negative = inhibition?
inactive

Return reported activity change, negative = inhibition; argument: "CC(=O)O[C@@H]1[C@@H](O)[C@@H](O)[C@H](Oc2c(-c3ccc(O)cc3)oc3c(CC=C(C)C)c(O)cc(O)c3c2=O)O[C@H]1C"
inactive

Dear colleague, I am looking for the recorded activity change, negative = inhibition of the following compound: "Cc1ccc(S(=O)(=O)c2cc3c(=O)n4ccccc4nc3n(C3CCCCC3)c2=N)cc1"
inactive

What does the data say about its activity change, negative = inhibition? Entry: "CCS(=O)(=O)c1ccc2oc(=O)c(/C=C(\O)c3ccc(Cl)cc3)nc2c1"
inactive

Endpoint output: activity change, negative = inhibition of "CC(=O)Nc1ccc2c(c1)C(=O)N(c1cccc(C)c1)C2=O" . Value?
inactive

Fill in: activity change, negative = inhibition of "COc1ccccc1/C=C1\SC(=S)N(CCC(=O)Nc2cc(C)on2)C1=O" is ___
inactive

Request the reported activity change, negative = inhibition associated with CCOC(=O)N1CCN(c2nc3ccccc3nc2C(C#N)C(=O)NCCc2ccccc2)CC1 (centres undefined)
inactive
